assay: Solubility of compound A in various solvents (standard solubility determination); assay type: physicochemical; details: organic solvent or mixture; Methanol; 25 °C
readout.name: solubility

Requested read-out: solubility. Entry: CC(C)N1Cc2cc(C(F)(F)F)ncc2-c2cnc(NCc3c(F)ccc4c3CCO4)n3cnc(c23)C1=O [compound A] 4300 µg/mL

###

assay: Solubility of compound A in various solvents (standard solubility determination); assay type: physicochemical; details: organic solvent or mixture; Methanol: dichloromethane (3:1); 25 °C
readout.name: solubility (µg/mL)
State the answer as a number, implicitly in µg/mL.

Requested read-out: solubility. Entry: CC(C)N1Cc2cc(C(F)(F)F)ncc2-c2cnc(NCc3c(F)ccc4c3CCO4)n3cnc(c23)C1=O 7700
